Reported binding signal by item:
Target: OsWOX13 (Oryza sativa, UniProt Q5QMM3 1-267)
Sequence: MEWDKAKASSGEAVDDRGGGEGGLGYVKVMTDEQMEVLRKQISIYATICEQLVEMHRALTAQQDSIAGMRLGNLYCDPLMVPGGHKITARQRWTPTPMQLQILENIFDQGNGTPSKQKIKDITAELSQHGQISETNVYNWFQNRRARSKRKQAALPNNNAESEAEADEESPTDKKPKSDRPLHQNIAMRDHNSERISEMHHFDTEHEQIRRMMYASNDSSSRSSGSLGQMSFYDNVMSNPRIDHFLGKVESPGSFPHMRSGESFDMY
Experiment: protein-binding microarray (RPBM); PBS, 2% BSA, 51.3 ng/ul salmon testes DNA, 50 uM zinc acetate, 200 nM TF, 25 C, 1 h; high values mean tight binding
Conditions: protein: recombinant; tags: N-terminal polyhistidine and DsRed monomer fusion (pET32a); label: CyDye5-dUTP incorporated in the synthesized complementary strand; 3' TTTTT single-stranded linker to array surface; dsDNA, one strand shown
The full ranking holds about 35,000 sequences; the median of “fluorescence intensity (a.u.)” is about 10,000, and the highest 2% start at about 52,000. The list comes from a sample in which the highest values are over-represented; it also holds close analogues and randomly drawn sequences.

Known results for sequences:
{"columns": ["sequence.data", "experimental.system", "measurement.kind", "endpoint.result"],
 "data": [
  ["ATAAATTTTATAAACTTGACTGCCTCTGGTTGTATATGCACGGAGTCACCTAGTGCAG", "OsWOX13 (Oryza sativa, UniProt Q5QMM3 1-267)", "binding signal", "23900 fluorescence intensity (a.u.)"],
  ["TTAATTAATTGATCACTTCCAAATCATGTAGCAGTACTGTCGGAGTCACCTAGTGCAG", "OsWOX13 (Oryza sativa, UniProt Q5QMM3 1-267)", "binding signal", "65400 fluorescence intensity (a.u.)"],
  ["GGTTGATTGTGAAGTTAATTATTTAACATCTCAATTATAACGGAGTCACCTAGTGCAG", "OsWOX13 (Oryza sativa, UniProt Q5QMM3 1-267)", "binding signal", "32800 fluorescence intensity (a.u.)"],
  ["AATTTAATTAATGACAAATATAATTAGCTCTCTATCCAGGCGGAGTCACCTAGTGCAG", "OsWOX13 (Oryza sativa, UniProt Q5QMM3 1-267)", "binding signal", "55500 fluorescence intensity (a.u.)"],
  ["AGTCTAATTGAGTGATTGTATACATGTTCAATGTTCATGGCGGAGTCACCTAGTGCAG", "OsWOX13 (Oryza sativa, UniProt Q5QMM3 1-267)", "binding signal", "65300 fluorescence intensity (a.u.)"],
  ["CCGGGGATTGATTTGCCGAGTGTATTATTGATCGTATGATCGGAGTCACCTAGTGCAG", "OsWOX13 (Oryza sativa, UniProt Q5QMM3 1-267)", "binding signal", "53500 fluorescence intensity (a.u.)"],
  ["TTTACTAAGCAATCAAGATAACCTGATGTGCCTATCCATCCGGAGTCACCTAGTGCAG", "OsWOX13 (Oryza sativa, UniProt Q5QMM3 1-267)", "binding signal", "10200 fluorescence intensity (a.u.)"],
  ["GCATGACAAATGGCGTTAATTAGTCCACAAATAATATATACGGAGTCACCTAGTGCAG", "OsWOX13 (Oryza sativa, UniProt Q5QMM3 1-267)", "binding signal", "3210 fluorescence intensity (a.u.)"]
]}

In: Which binding signal value belongs to "TTCATTAATTGATTATTACTAGTAGGGATGGTTGGTTCAACGGAGTCACCTAGTGCAG" ?
Out: 30700 fluorescence intensity (a.u.)

In: Further, for "ATTAATTAAAATCGCGCCCAATTAATCATTTAATCCATCCCGGAGTCACCTAGTGCAG" ?
Out: 40700 fluorescence intensity (a.u.)

In: Further, for "AGCTCTATAATTTTACAATTTAAAATTATATTATATAAAGCGGAGTCACCTAGTGCAG" ?
Out: 20400 fluorescence intensity (a.u.)

In: Further, for "AGGGTAATTACACATTTAACCCTATTTTAAGGTCTAACTACGGAGTCACCTAGTGCAG" ?
Out: 18400 fluorescence intensity (a.u.)

In: Further, for "TTATGCATTAACAACGTAACTAATTTAATTTGATTAGTTTCGGAGTCACCTAGTGCAG" ?
Out: 24000 fluorescence intensity (a.u.)

In: Further, for "CAATTATCAATCAGTCTGAAATCTTGCATTTGCATTTGCACGGAGTCACCTAGTGCAG" ?
Out: 22400 fluorescence intensity (a.u.)

In: Further, for "CCTAATTACTCCATGATTTGATAATATGACGCTACAGTAACGGAGTCACCTAGTGCAG" ?
Out: 25000 fluorescence intensity (a.u.)

In: Further, for "CACAATTCCTTCTAATTATTTGATAATCAAGTTTCTCCTTCGGAGTCACCTAGTGCAG" ?
Out: 9620 fluorescence intensity (a.u.)

In: Further, for "GCAAATGTAGGTAAGATTGAGATTGACTTTATGTGGGTCCCGGAGTCACCTAGTGCAG" ?
Out: 12500 fluorescence intensity (a.u.)

In: Further, for "TTAATTGATCAATAATCACTGTTCCTTCTCAAGTAGTCAACGGAGTCACCTAGTGCAG" ?
Out: 64600 fluorescence intensity (a.u.)

In: Further, for "CAAACAGTCAATTAGGCCTAAACAAGTTGCTACGAGCTAGCGGAGTCACCTAGTGCAG" ?
Out: 33200 fluorescence intensity (a.u.)

In: Further, for "ACCTTTTCCGCGTGTTGTGTCTGTTTGTTGAAGATGAATTCGGAGTCACCTAGTGCAG" ?
Out: 3280 fluorescence intensity (a.u.)

In: Further, for "GAACTAATCACAAATTTCCACCATACAATGCCGCTGTACTCGGAGTCACCTAGTGCAG" ?
Out: 13300 fluorescence intensity (a.u.)

In: Further, for "TCACTGTTATTTAATTATATATATATATATATATTCATGCCGGAGTCACCTAGTGCAG" ?
Out: 8880 fluorescence intensity (a.u.)

In: Further, for "CCTAATTGCGTCATGATTTGACAATGTAGTGCTACAGTAACGGAGTCACCTAGTGCAG" ?
Out: 50800 fluorescence intensity (a.u.)

In: Further, for "AGATGTTTGAATAATTGATACAATATCAGGAGCGAATATGCGGAGTCACCTAGTGCAG" ?
Out: 4430 fluorescence intensity (a.u.)

In: Further, for "TGTGATTGGTAATTGCCGAACTATTTGAAAATGGTGCGTGCGGAGTCACCTAGTGCAG" ?
Out: 62300 fluorescence intensity (a.u.)

In: Further, for "CCTAATTGCACCATGATTTGATAATGTTGTGCTACAGTAACGGAGTCACCTAGTGCAG" ?
Out: 42600 fluorescence intensity (a.u.)

In: Further, for "ATTGATTGAGAAAATAATGTTGGTGAATAAATTGTTATATCGGAGTCACCTAGTGCAG" ?
Out: 40700 fluorescence intensity (a.u.)

In: Further, for "CAAATATATTATAAAATTGCATTTAATAAAACTTATTTGGCGGAGTCACCTAGTGCAG" ?
Out: 3450 fluorescence intensity (a.u.)

In: Further, for "TTGAATTTAAATTTAAACGTATAGTGCCTTCCCTTTTACGCGGAGTCACCTAGTGCAG" ?
Out: 22900 fluorescence intensity (a.u.)
